Every entry's value here was drawn from patent US20100075993A1.

Test system: BHK 26.5 replicon cells
Method Summary: MTT toxicity assay on BHK 26.5 replicon cells
Type: cell-based
Measurement Setup: MTT assay
Metric: Toxicity (uM)*

Problem: Determine from records and report Toxicity (uM)* for `Cc1ccc(-n2nc3c(c2NC(=O)C2CC2)CSC3)c(C)c1`
Result: >10 µM

Problem: Give the reported value of Toxicity (uM)* for this record: COc1ccc(-n2nc3c(c2NC(=O)c2ccc(S(=O)(=O)N4CCCCC4)cc2)CSC3)cc1 [Compound 18-D2]
Result: >30 µM

Problem: Answer with the recorded Toxicity (uM)* for the molecule listed here: `Cc1ccc(CCNC(=O)c2cnn3c(O)c(Cc4ccccc4F)c(C)nc23)cc1`
Result: >10 µM

Problem: Fill in Toxicity (uM)* for record `Cc1ccc(-c2csc(Nc3ccc(S(=O)(=O)Nc4cc(C)on4)cc3)n2)cc1`
Result: >10 µM

Problem: Dear colleague, please send me the reported Toxicity (uM)* for CCc1cccc(NC(=O)C(Cc2ccccc2)NS(=O)(=O)c2cccs2)c1 (centres unmarked) when you can.
Result: >10 µM

Problem: Provide one value: measured Toxicity (uM)* of Cc1cc(C)c2nc(NC3=NC(c4ccccc4)CC(=O)N3)nc(C)c2c1 (centres unmarked)
Result: >10 µM

Problem: Specify measured Toxicity (uM)* for `CCOC(=O)c1cnc2ccc(OCC)cc2c1NCc1ccccc1` .
Result: >20 µM

Problem: Specify Toxicity (uM)* for `COc1cc(OC)cc(C(=O)Nc2c3c(nn2-c2cccc(Cl)c2)CSC3)c1` and stop.
Result: >30 µM

Problem: Please give the documented Toxicity (uM)* of `COc1ccc(CCC(=O)Nc2ccc(C(=N)NO)cc2)cc1`
Result: >30 µM

Problem: Report Toxicity (uM)*, nothing else, for this molecule: `COc1ccc(-n2nc3c(c2NC(=O)c2cccs2)CSC3)cc1`
Result: >30 µM

Problem: Read off the recorded Toxicity (uM)* for `Cc1cccc(-n2nc3c(c2NC(=O)c2ccc(S(=O)(=O)N4CCCCC4)cc2)CSC3)c1`
Result: >30 µM

Problem: Please look at this molecule and report its Toxicity (uM)*: `CCN(CCNC(=O)c1cnn2c(O)c(Cc3ccccc3F)c(C)nc12)c1ccccc1`
Result: >10 µM

Problem: Supply Toxicity (uM)* value. Item: CCC(C)NC(=O)c1cnn2c(O)c(Cc3ccccc3Cl)c(C)nc12 (centres unmarked)
Result: >10 µM

Problem: Dear colleague, please send me the reported Toxicity (uM)* for `O=C(Nc1c2c(nn1-c1ccc(F)cc1)CSC2)c1ccc2c(c1)OCO2` when you can.
Result: >30 µM

Problem: Answer with the recorded Toxicity (uM)* for the molecule listed here: `COc1ccc(-n2nc3c(c2NC(=O)c2ccc(OC(C)C)cc2)CSC3)cc1`
Result: >30 µM

Problem: Retrieve Toxicity (uM)* measured for `CCOc1ccc(C(=O)Nc2c3c(nn2-c2ccc(OC)cc2)CSC3)cc1OCC` and print it.
Result: >30 µM

Problem: Tell us which Toxicity (uM)* value is on record for `COc1ccc(CC(=O)Nc2ccc(C(=N)NO)cc2)cc1`
Result: >30 µM

Problem: Please supply the value of reported Toxicity (uM)* for the item `NC(=O)CCS(=O)(=O)c1ccc(Cl)cc1`
Result: >20 µM

Problem: Answer with reported Toxicity (uM)* of `Cc1nc2c(C(=O)NCCC3=CCCCC3)cnn2c(O)c1Cc1ccccc1Cl`
Result: >10 µM

Problem: Give reported Toxicity (uM)* value for `COc1ccc(-n2nc3c(c2NC(=O)c2ccc4c(c2)OCO4)CSC3)cc1`
Result: >30 µM

Problem: Dear colleague, please send me the reported Toxicity (uM)* for Cc1ccc(S(=O)(=O)N2Cc3ccccc3CC2C(=O)Nc2ccc(Cl)cc2)cc1 (centres unmarked) when you can.
Result: >10 µM

Problem: For the molecule `O=C1Nc2ccc(S(=O)(=O)Nc3cc(Cl)ccc3Cl)c3cccc1c23` , give its measured Toxicity (uM)* value.
Result: >10 µM

Problem: Please look at this molecule and report its Toxicity (uM)*: CC1CC(C)CN(S(=O)(=O)c2ccc(C3CCCCC3)cc2)C1 (centres unmarked)
Result: >10 µM
